Data origin: patent US4590193A

Each record here notes measured LD50.
assay.info: Intraperitoneal toxicity (mortality, LD50)
run.conditions: mouse, in vivo, ip, Bliss method
recorded.metric: LD50 (mg/kg)

compound: COc1ccccc1N1CCN(CCc2ccccc2NC2OC(=O)c3ccccc32)CC1 (centres unmarked)
unit.abbreviation: mg/kg
quantitative.result: 873
//
compound: COc1ccc(N2CCN(CCc3ccccc3NC3OC(=O)c4ccccc43)CC2)cc1 (centres unmarked)
unit.abbreviation: mg/kg
quantitative.result: 500

* * *

Each record here notes measured mortality.
assay.info: Oral toxicity (mortality), intragastric administration
run.conditions: mouse, in vivo, 750 mg/kg, read-out: percentage of mortality

compound: O=C1OC(Nc2ccccc2CCN2CCN(c3ccc(F)cc3)CC2)c2ccccc21 (centres unmarked)
mortality, %: 0
--
compound: COc1ccccc1N1CCN(CCc2ccccc2NC2OC(=O)c3ccccc32)CC1 (centres unmarked)
mortality, %: 0

* * *

assay.info: Intraperitoneal toxicity (mortality, LD50)
run.conditions: mouse, in vivo, ip, 900 mg/kg, read-out: percentage of mortality
recorded.metric: mortality (%)

compound: COc1ccccc1N1CCN(CCc2ccccc2NC2OC(=O)c3ccccc32)CC1 (stereo not shown)
unit.abbreviation: %
quantitative.result: 50

* * *

target.under.test: contractions induced by histamine on a guinea pig ileum (Cavia porcellus, UniProt P31389)
Construct: on a guinea pig ileum; from tissue; host or cells: isolated guinea pig ileum
Sequence (P31389 whole entry): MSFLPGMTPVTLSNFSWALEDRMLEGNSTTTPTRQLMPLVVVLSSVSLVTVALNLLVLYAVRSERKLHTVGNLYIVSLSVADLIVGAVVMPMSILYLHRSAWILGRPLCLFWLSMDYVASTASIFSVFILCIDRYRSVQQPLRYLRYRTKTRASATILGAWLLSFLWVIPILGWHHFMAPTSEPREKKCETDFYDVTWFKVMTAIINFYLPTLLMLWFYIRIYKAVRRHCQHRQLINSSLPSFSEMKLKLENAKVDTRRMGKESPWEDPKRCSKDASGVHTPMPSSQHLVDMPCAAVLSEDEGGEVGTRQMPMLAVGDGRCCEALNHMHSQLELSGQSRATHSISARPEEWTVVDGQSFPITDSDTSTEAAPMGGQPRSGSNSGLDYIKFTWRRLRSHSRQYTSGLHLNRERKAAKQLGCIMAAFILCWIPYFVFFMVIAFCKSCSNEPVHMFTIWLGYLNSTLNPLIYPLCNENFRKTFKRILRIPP
assay.info: In vitro antihistamine activity: inhibition of histamine-induced contractions of guinea pig ileum
Type: cell-based
run.conditions: histamine 10^-8 g/l; time of contact 3 mm
pIC50: −log10 of the molar value.
Each record here notes measured pIC50.

molecule: O=C1OC(Nc2ccccc2CCN2CCN(c3ccc(F)cc3)CC2)c2ccccc21 (centres unmarked)
pIC50: 7.81
--
molecule: COc1ccc2c(c1OC)C(=O)OC2Nc1ccccc1CCN1CCN(c2ccccc2)CC1 (centres unmarked)
pIC50: 7.54

* * *

assay.info: Oral toxicity (mortality), intragastric administration
run.conditions: mouse, in vivo, 3000 mg/kg, read-out: percentage of mortality

compound: O=C1OC(Nc2ccccc2CCN2CCN(c3ccccc3)CC2)c2ccccc21 (stereo not shown)
mortality: 10%

* * *

Each record here notes measured mortality.
assay.info: Intraperitoneal toxicity (mortality, LD50)
run.conditions: mouse, in vivo, ip, 500 mg/kg, read-out: percentage of mortality

molecule: Cc1ccccc1N1CCN(CCc2ccccc2NC2OC(=O)c3ccccc32)CC1 (centres unmarked)
mortality: 0%
--
molecule: COc1ccc2c(c1OC)C(=O)OC2Nc1ccccc1CCN1CCN(c2ccc(F)cc2)CC1 (centres unmarked)
mortality: 0%
--
molecule: COc1ccccc1N1CCN(CCc2ccccc2NC2OC(=O)c3ccccc32)CC1 (centres unmarked)
mortality: 25%
--
molecule: COc1ccc(N2CCN(CCc3ccccc3NC3OC(=O)c4ccccc43)CC2)cc1 (centres unmarked)
mortality: 60%
--
molecule: O=C1OC(Nc2ccccc2CCN2CCN(c3ccc(F)cc3)CC2)c2ccccc21 (centres unmarked)
mortality: 20%
--
molecule: O=C1OC(Nc2ccccc2CCN2CCN(c3ccccc3)CC2)c2ccccc21 (centres unmarked)
mortality: 0%
--
molecule: COc1ccc2c(c1OC)C(=O)OC2Nc1ccccc1CCN1CCN(c2ccccc2C)CC1 (centres unmarked)
mortality: 0%
--
molecule: COc1ccc2c(c1OC)C(=O)OC2Nc1ccccc1CCN1CCN(c2ccccc2)CC1 (centres unmarked)
mortality: 0%

* * *

Each record here notes measured IC50.
target.under.test: contractions induced by histamine on a guinea pig ileum (Cavia porcellus)
Construct: on a guinea pig ileum; from tissue; host or cells: isolated guinea pig ileum
assay.info: In vitro antihistamine activity: inhibition of histamine-induced contractions of guinea pig ileum
Type: cell-based
run.conditions: histamine 10^-8 g/l; time of contact 10 mm

compound: Cc1ccccc1N1CCN(CCc2ccccc2NC2OC(=O)c3ccccc32)CC1 (centres unmarked)
IC50, nM: 80
//
compound: COc1ccccc1N1CCN(CCc2ccccc2NC2OC(=O)c3ccccc32)CC1 (centres unmarked)
IC50, nM: 31.1
